- test_target: LXRα (Homo sapiens)
- Construct: CMX-GAL4N-hLXRα-LBD; expressed in transfected cells; host or cells: HEK293
- Sequence (Q13133 209-447 limits assumed): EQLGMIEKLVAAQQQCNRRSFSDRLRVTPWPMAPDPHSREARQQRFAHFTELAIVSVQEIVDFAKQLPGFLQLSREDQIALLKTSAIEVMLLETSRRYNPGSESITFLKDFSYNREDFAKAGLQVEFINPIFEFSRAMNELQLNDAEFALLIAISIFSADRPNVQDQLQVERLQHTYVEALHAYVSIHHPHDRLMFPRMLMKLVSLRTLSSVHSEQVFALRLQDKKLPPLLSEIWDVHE
- experiment_description: LXRα reporter gene assay in HEK293
- Type: cell-based
- measurement_setup: read-out: LXRα antagonistic activity (IC50)
measured_metric: pIC50
# log scale: pIC50 equals minus log10 of the concentration in mol/L

In [3]: df
Out[3]:
                           molecular_string  measured
0  CCCCn1c(=O)c2c(OC)cccc2c2cc(C(O)(C(F)(F)F)C(F)(F)F)ccc21      4.96

Prompt line: Look up pIC50 for this compound: "CCCCn1c(=O)c2cccc(OC)c2c2cc(C(O)(C(F)(F)F)C(F)(F)F)ccc21"
Response line: 5.34

Prompt line: Look up pIC50 for this compound: "CCCCn1c(=O)c2ccc(C(F)(F)F)cc2c2cc(C(O)(C(F)(F)F)C(F)(F)F)ccc21"
Response line: 5.15

Prompt line: Look up pIC50 for this compound: "CCCCn1c(=O)c2cc(OC)ccc2c2cc(C(O)(C(F)(F)F)C(F)(F)F)ccc21"
Response line: 4.92

###

- test_target: GR (Homo sapiens, UniProt P04150)
- Sequence (P04150 whole entry): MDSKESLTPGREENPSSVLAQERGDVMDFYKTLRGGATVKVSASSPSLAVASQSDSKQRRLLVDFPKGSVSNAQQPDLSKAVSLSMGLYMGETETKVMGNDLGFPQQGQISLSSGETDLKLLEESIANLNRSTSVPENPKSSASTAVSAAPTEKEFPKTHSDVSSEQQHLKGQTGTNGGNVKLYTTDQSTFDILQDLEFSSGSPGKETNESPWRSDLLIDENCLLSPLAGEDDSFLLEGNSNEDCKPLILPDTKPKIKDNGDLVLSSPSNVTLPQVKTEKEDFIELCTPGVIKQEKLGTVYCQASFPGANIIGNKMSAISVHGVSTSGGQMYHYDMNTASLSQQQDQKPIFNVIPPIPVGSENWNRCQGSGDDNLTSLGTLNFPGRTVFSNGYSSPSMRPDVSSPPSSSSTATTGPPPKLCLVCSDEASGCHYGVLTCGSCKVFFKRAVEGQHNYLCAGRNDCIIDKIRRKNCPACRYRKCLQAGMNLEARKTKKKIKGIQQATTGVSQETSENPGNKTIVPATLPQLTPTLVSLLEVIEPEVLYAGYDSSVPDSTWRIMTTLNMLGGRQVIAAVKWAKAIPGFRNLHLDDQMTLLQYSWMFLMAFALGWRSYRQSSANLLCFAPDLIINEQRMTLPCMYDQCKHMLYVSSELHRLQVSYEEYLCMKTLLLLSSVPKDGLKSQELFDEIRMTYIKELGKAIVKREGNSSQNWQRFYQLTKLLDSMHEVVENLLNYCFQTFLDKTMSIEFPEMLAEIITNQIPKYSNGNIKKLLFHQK
- experiment_description: GR reporter gene assay in HEK293
- measurement_setup: reporter gene assay, HEK293; agonist dexamethasone 1 nM; read-out: GR antagonistic activity (IC50)
measured_metric: IC50

Guide cases for IC50, answers given:
In [3]: df
Out[3]:
                                   compound  measured
0  O=c1[nH]c2ccc(C(O)(C(F)(F)F)C(F)(F)F)cc2c2ccccc12 [Compound 1]   > 20 µM
1  O=c1[nH]c2ccc(C(O)(C(F)(F)F)C(F)(F)F)cc2c2cc(F)ccc12 [Compound 35]      7 µM
2  CCc1cc(C(O)(C(F)(F)F)C(F)(F)F)cc2c1[nH]c(=O)c1ccccc12 [Compound 41]   > 20 µM

Prompt line: Item CCCCn1c(=O)c2ccc(C(F)(F)F)cc2c2cc(C(O)(C(F)(F)F)C(F)(F)F)ccc21 [Compound 37] with GR (Homo sapiens, UniProt P04150) - IC50?
Response line: > 20 µM

###

- test_target: AR (Homo sapiens)
- Sequence (P10275 1-920): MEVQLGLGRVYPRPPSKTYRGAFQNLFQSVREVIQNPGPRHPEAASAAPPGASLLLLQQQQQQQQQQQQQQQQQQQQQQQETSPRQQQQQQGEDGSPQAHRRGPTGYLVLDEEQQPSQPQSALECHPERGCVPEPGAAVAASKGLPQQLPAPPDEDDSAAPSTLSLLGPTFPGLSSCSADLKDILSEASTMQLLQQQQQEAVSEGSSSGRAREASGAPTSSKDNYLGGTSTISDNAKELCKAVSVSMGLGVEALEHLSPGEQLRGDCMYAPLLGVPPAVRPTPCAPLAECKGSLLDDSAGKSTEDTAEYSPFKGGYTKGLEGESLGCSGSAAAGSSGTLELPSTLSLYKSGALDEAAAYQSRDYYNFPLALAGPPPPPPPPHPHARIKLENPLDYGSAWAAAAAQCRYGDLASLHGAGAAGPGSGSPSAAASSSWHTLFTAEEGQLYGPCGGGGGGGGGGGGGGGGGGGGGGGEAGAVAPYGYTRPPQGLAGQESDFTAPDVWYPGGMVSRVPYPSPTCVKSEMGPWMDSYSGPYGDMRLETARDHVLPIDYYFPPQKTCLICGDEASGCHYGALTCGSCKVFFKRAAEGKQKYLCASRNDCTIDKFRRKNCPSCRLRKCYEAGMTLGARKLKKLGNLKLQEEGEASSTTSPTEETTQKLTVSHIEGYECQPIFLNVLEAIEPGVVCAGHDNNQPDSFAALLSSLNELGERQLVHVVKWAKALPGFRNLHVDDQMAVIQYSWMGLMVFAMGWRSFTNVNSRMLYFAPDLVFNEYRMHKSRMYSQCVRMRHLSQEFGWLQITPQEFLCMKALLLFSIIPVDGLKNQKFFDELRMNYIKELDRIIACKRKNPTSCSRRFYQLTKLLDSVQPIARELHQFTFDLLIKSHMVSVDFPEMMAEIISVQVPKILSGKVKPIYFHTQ
- experiment_description: AR reporter gene assay in HEK293
- Type: cell-based
- measurement_setup: reporter gene assay, HEK293; agonist dihydrotestosterone 0.3 nM; read-out: AR antagonistic activity (IC50), AR reporter gene
measured_metric: pIC50
# log scale: pIC50 equals minus log10 of the concentration in mol/L

Guide cases for pIC50, answers given:
>>> df
                           molecular_string  measured_metric  measured
0  CCCCn1c(=O)c2ccccc2c2cc(C(O)(C(F)(F)F)C(F)(F)F)c(OC)c(OC)c21            pIC50      5.21
1  CCCc1cc(C(O)(C(F)(F)F)C(F)(F)F)cc2c1[nH]c(=O)c1ccccc12            pIC50      5.27
2  CCCCn1c(=O)c2cc(OC)ccc2c2cc(C(O)(C(F)(F)F)C(F)(F)F)c(OC)cc21            pIC50      6.24
3  O=c1[nH]c2c(Cl)cc(C(O)(C(F)(F)F)C(F)(F)F)cc2c2ccccc12            pIC50      7.23
4  CCCCn1c(=O)c2cc(OC)c(OC)cc2c2cc(C(O)(C(F)(F)F)C(F)(F)F)ccc21            pIC50      5.80
5           CCCCn1c(=O)c2ccccc2c2cc(C)ccc21            pIC50      4.96

Now let's try a different one.
Prompt line: Look up pIC50 for this molecule: "Cn1c(=O)c2ccccc2c2cc(C(O)(C(F)(F)F)C(F)(F)F)ccc21"
Response line: 6.30
